Recorded pIC50 by entry
Test system: 485176-168-R4-J1-PDC complex spheroid growth;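 also: spheroids exposed to compounds for seven days before readout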
MEASUREMENT_DESCRIPTION: Anticancer human tumor 485176-168-R4-J1-PDC patient-derived pancreatic adenocarcinoma cell line growth inhibition [RAS]
STATED_CONDITIONS: curve of first compound; second compound 0.000949 µM
pIC50: −log10 of the molar value.

COMPOUND | pIC50
CCc1c2c(nc3ccc(O)cc13)-c1cc3c(c(=O)n1C2)COC(=O)[C@]3(O)CC + CCn1c(-c2cccnc2C(C)OC)c2c3cc(ccc31)N1CCOC(CC(NC(=O)C(C(C)C)N(C)C(=O)C3(F)CCN(C(=O)C#CC(C)(C)N(C)C)CC3)C(=O)N3CCCC(N3)C(=O)OCC(C)(C)C2)C1 | 7.90
CC(C)NCC(C(=O)N1CCN(c2ncnc3c2C(C)CC3O)CC1)c1ccc(Cl)cc1 (centres undefined) + CCn1c(-c2cc(N3CCN(C)CC3)cnc2C(C)OC)c2c3cc(ccc31)-c1csc(n1)CC(NC(=O)C1CC1C)C(=O)N1CCCC(N1)C(=O)OCC(C)(C)C2 | 5.63
CC(C)n1nc(-c2ccc3oc(N)nc3c2)c2c(N)ncnc21 + CCn1c(-c2cc(N3CCN(C)CC3)cnc2C(C)OC)c2c3cc(ccc31)-c1csc(n1)CC(NC(=O)C1CC1C)C(=O)N1CCCC(N1)C(=O)OCC(C)(C)C2 | 7.69
O=C(c1ccc(F)c(F)c1Nc1ccc(I)cc1F)N1CC(O)([C@@H]2CCCCN2)C1 + CCn1c(-c2cccnc2C(C)OC)c2c3cc(ccc31)N1CCOC(CC(NC(=O)C(C(C)C)N(C)C(=O)C3(F)CCN(C(=O)C#CC(C)(C)N(C)C)CC3)C(=O)N3CCCC(N3)C(=O)OCC(C)(C)C2)C1 | 6.46
